System: H4
ASSAY OVERVIEW: Selectivity index, Ratio of CC50 for human H4 cells to CC50 for human skin melanoma cells
Assay type: functional
READOUT TYPE: Selectivity index
Output: the number by itself.

Tested on H4, the item CC(=O)O[C@@H]1[C@@H](F)[C@@H](CSC(C)=O)O[C@H]1n1cc(C)c(=O)[nH]c1=O showed Selectivity index equal to 0.5

Tested on H4, the item CC(=O)O[C@@H]1[C@@H](F)[C@@H](CSC(C)=O)O[C@H]1n1cc(F)c(=O)[nH]c1=O showed Selectivity index equal to 83.2

Tested on H4, the item CC(=O)O[C@@H]1[C@@H](F)[C@@H](CSC(C)=O)O[C@H]1n1ccc(=O)[nH]c1=O showed Selectivity index equal to 83.5

Tested on H4, the item O=c1[nH]cc(F)c(=O)[nH]1 [FLUOROURACIL] showed Selectivity index equal to 83.4
